Sodium-dependent dopamine transporter (Homo sapiens, UniProt Q01959) data, read-out pIC50
Sequence (Q01959 whole entry): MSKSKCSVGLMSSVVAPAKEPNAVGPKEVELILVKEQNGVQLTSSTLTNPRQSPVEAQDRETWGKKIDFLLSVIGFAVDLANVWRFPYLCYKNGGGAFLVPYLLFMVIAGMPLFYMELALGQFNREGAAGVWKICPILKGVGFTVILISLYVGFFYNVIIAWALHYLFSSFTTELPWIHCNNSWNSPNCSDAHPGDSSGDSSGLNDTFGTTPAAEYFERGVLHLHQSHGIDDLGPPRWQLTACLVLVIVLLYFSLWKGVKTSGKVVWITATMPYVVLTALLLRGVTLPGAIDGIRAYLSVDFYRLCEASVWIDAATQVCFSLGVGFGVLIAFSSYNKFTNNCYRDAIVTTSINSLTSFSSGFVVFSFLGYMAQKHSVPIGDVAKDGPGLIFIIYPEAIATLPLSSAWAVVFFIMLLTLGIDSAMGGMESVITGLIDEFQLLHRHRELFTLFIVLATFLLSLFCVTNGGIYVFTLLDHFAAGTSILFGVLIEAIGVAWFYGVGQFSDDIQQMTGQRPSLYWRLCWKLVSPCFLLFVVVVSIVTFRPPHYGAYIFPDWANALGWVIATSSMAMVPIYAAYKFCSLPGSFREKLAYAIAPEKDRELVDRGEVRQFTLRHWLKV
Here pIC50 is given on a logarithmic scale as minus log10 of the concentration in mol/L.

Could you tell me which pIC50 is on file for Clc1ccc(OC(c2ccc3ccccc3c2)C2CNC2)cc1Cl (stereo not given) ? 7.27

One more compound: Fc1cc(C(Oc2ccccc2)C2CNC2)ccc1Cl (stereo not given) 6.83

One more compound: CCCOC(c1ccc2ccccc2c1)C1CNC1.Cl (stereo not given) 7.14

One more compound: Cl.c1ccc(OC(c2ccc3ccccc3c2)C2CNC2)cc1 (stereo not given) 7.46

One more compound: CCCOC(c1ccc(Cl)c(Cl)c1)C1CNC1 (stereo not given) 7.49
